Tested on: 677734-321-R-J1-PDC complex spheroid viability;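 also: spheroids exposed to compounds for one week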
Assay: Anticancer human tumor 677734-321-R-J1-PDC patient-derived soft tissue sarcoma cell line growth inhibition [POLQ]
Conditions: curve of first compound; second compound 0.0316 µM
pIC50: −log10 of the molar value.
Items are presented alongside their recorded pIC50.

{"Molecule": "COc1ccc([C@@H](O)c2cc(-c3ncnc4cc(N5CCOCC5)ccc34)c(F)cc2Cl)nn1 + Cc1cccc(N(C)C(=O)C2C(O)CCN2c2nc(C)cc(C(F)(F)F)c2C#N)c1", "Target Entity": "677734-321-R-J1-PDC complex spheroid viability", "Measured Endpoint": "pIC50", "Value Observed": "< 5.00"}

Problem: What value of pIC50 has been recorded for this entry: CCCS(=O)(=O)Nc1ccc(F)c(C(=O)c2c[nH]c3ncc(-c4ccc(Cl)cc4)cc23)c1F + COC1C(OC(N)=O)C(O)C(Oc2ccc3c(O)c(NC(=O)c4ccc(O)c(CC=C(C)C)c4)c(=O)oc3c2C)OC1(C)C
Solution: 5.19

Problem: What value of pIC50 has been recorded for this entry: CC[C@@]1(O)C(=O)OCc2c1cc1n(c2=O)Cc2cc3c(CN(C)C)c(O)ccc3nc2-1 + Nc1ccc(C#CCN(C(=O)Cc2ncc(C(F)(F)F)cc2C(F)(F)F)c2ccc(F)cc2)nn1
Solution: 7.70

Problem: What value of pIC50 has been recorded for this entry: COc1cccc(OCCCN)c1-c1cc(Nc2cnc(C#N)cn2)n[nH]1 + Nc1ccc(C#CCN(C(=O)Cc2ncc(C(F)(F)F)cc2C(F)(F)F)c2ccc(F)cc2)nn1
Solution: 8.21

Problem: What value of pIC50 has been recorded for this entry: O=C(Nc1ccc(O)c(NS(=O)(=O)c2ccc(F)cc2)c1)c1ccc(-c2ccccc2)cc1 + COC1C(OC(N)=O)C(O)C(Oc2ccc3c(O)c(NC(=O)c4ccc(O)c(CC=C(C)C)c4)c(=O)oc3c2C)OC1(C)C
Solution: 5.14

Problem: What value of pIC50 has been recorded for this entry: C=CC(=O)N1CCN(c2nc(=O)n(-c3c(C)ccnc3C(C)C)c3nc(-c4c(O)cccc4F)c(F)cc23)C(C)C1 (stereo unspecified) + Cc1cccc(N(C)C(=O)C2C(O)CCN2c2nc(C)cc(C(F)(F)F)c2C#N)c1
Solution: < 5.00

Problem: What value of pIC50 has been recorded for this entry: COc1ccc([C@@H](O)c2cc(-c3ncnc4cc(N5CCOCC5)ccc34)c(F)cc2Cl)nn1 + COC1C(OC(N)=O)C(O)C(Oc2ccc3c(O)c(NC(=O)c4ccc(O)c(CC=C(C)C)c4)c(=O)oc3c2C)OC1(C)C
Solution: < 5.00

Problem: What value of pIC50 has been recorded for this entry: C=CC(=O)N1CCN(c2nc(=O)n(-c3c(C)ccnc3C(C)C)c3nc(-c4c(O)cccc4F)c(F)cc23)C(C)C1 (stereo unspecified) + COC1C(OC(N)=O)C(O)C(Oc2ccc3c(O)c(NC(=O)c4ccc(O)c(CC=C(C)C)c4)c(=O)oc3c2C)OC1(C)C
Solution: < 5.00

Problem: What value of pIC50 has been recorded for this entry: Nc1ccn(C2OC(CO)C(O)C2(F)F)c(=O)n1 (stereo unspecified) + Cc1cccc(N(C)C(=O)C2C(O)CCN2c2nc(C)cc(C(F)(F)F)c2C#N)c1
Solution: > 7.50

Problem: What value of pIC50 has been recorded for this entry: CCc1c2c(nc3ccc(O)cc13)-c1cc3c(c(=O)n1C2)COC(=O)[C@]3(O)CC + COC1C(OC(N)=O)C(O)C(Oc2ccc3c(O)c(NC(=O)c4ccc(O)c(CC=C(C)C)c4)c(=O)oc3c2C)OC1(C)C
Solution: > 8.50

Problem: What value of pIC50 has been recorded for this entry: CCc1cc2c(N3CCc4c(cc(Cn5ccnc5)cc4-c4cn(C)nc4C(F)(F)F)C3=O)cc(C)nc2c(OC)n1 + Nc1ccc(C#CCN(C(=O)Cc2ncc(C(F)(F)F)cc2C(F)(F)F)c2ccc(F)cc2)nn1
Solution: < 5.00

Problem: What value of pIC50 has been recorded for this entry: COc1cc2cc(C(=O)CCC(=O)O)sc2cc1OC + Cc1cccc(N(C)C(=O)C2C(O)CCN2c2nc(C)cc(C(F)(F)F)c2C#N)c1
Solution: < 5.00

Problem: What value of pIC50 has been recorded for this entry: C=CC(=O)N1CCN(c2nc(=O)n(-c3c(C)ccnc3C(C)C)c3nc(-c4c(O)cccc4F)c(F)cc23)C(C)C1 (stereo unspecified) + Nc1ccc(C#CCN(C(=O)Cc2ncc(C(F)(F)F)cc2C(F)(F)F)c2ccc(F)cc2)nn1
Solution: < 5.00

Problem: What value of pIC50 has been recorded for this entry: C#Cc1c(F)ccc2cc(O)cc(-c3ncc4c(N5CC6CCC(C5)N6)nc(OCC56CCCN5CC(F)C6)nc4c3F)c12 (stereo unspecified) + Nc1ccc(C#CCN(C(=O)Cc2ncc(C(F)(F)F)cc2C(F)(F)F)c2ccc(F)cc2)nn1
Solution: < 5.00

Problem: What value of pIC50 has been recorded for this entry: COc1cccc2c1C(=O)c1c(O)c3c(c(O)c1C2=O)CC(O)(C(=O)CO)CC3OC1CC(N)C(O)C(C)O1 (stereo unspecified) + Nc1ccc(C#CCN(C(=O)Cc2ncc(C(F)(F)F)cc2C(F)(F)F)c2ccc(F)cc2)nn1
Solution: 7.40

Problem: What value of pIC50 has been recorded for this entry: CC(=O)O[C@H]1C(=O)[C@@]2(C)[C@H]([C@H](OC(=O)c3ccccc3)[C@]3(O)C[C@H](OC(=O)[C@H](O)[C@@H](NC(=O)c4ccccc4)c4ccccc4)C(C)=C1C3(C)C)[C@]1(OC(C)=O)CO[C@@H]1C[C@@H]2O + COC1C(OC(N)=O)C(O)C(Oc2ccc3c(O)c(NC(=O)c4ccc(O)c(CC=C(C)C)c4)c(=O)oc3c2C)OC1(C)C
Solution: > 8.02

Problem: What value of pIC50 has been recorded for this entry: CC1COCCN1c1cc(C2(S(C)(=N)=O)CC2)nc(-c2ccnc3[nH]ccc23)n1 (stereo unspecified) + Cc1cccc(N(C)C(=O)C2C(O)CCN2c2nc(C)cc(C(F)(F)F)c2C#N)c1
Solution: 5.39

Problem: What value of pIC50 has been recorded for this entry: CCc1cc2c(N3CCc4c(cc(Cn5ccnc5)cc4-c4cn(C)nc4C(F)(F)F)C3=O)cc(C)nc2c(OC)n1 + Cc1cccc(N(C)C(=O)C2C(O)CCN2c2nc(C)cc(C(F)(F)F)c2C#N)c1
Solution: 5.19

Problem: What value of pIC50 has been recorded for this entry: C#Cc1c(F)ccc2cc(O)cc(-c3ncc4c(N5CC6CCC(C5)N6)nc(OCC56CCCN5CC(F)C6)nc4c3F)c12 (stereo unspecified) + COC1C(OC(N)=O)C(O)C(Oc2ccc3c(O)c(NC(=O)c4ccc(O)c(CC=C(C)C)c4)c(=O)oc3c2C)OC1(C)C
Solution: < 5.00

Problem: What value of pIC50 has been recorded for this entry: CCCS(=O)(=O)Nc1ccc(F)c(C(=O)c2c[nH]c3ncc(-c4ccc(Cl)cc4)cc23)c1F + Cc1cccc(N(C)C(=O)C2C(O)CCN2c2nc(C)cc(C(F)(F)F)c2C#N)c1
Solution: 5.37

Problem: What value of pIC50 has been recorded for this entry: Nc1ccn(C2OC(CO)C(O)C2(F)F)c(=O)n1 (stereo unspecified) + COC1C(OC(N)=O)C(O)C(Oc2ccc3c(O)c(NC(=O)c4ccc(O)c(CC=C(C)C)c4)c(=O)oc3c2C)OC1(C)C
Solution: > 7.50
